- STUDY TARGET: 5-hydroxytryptamine receptor 5A (Homo sapiens) (UniProt P47898)
- Sequence (P47898 whole entry, looked up): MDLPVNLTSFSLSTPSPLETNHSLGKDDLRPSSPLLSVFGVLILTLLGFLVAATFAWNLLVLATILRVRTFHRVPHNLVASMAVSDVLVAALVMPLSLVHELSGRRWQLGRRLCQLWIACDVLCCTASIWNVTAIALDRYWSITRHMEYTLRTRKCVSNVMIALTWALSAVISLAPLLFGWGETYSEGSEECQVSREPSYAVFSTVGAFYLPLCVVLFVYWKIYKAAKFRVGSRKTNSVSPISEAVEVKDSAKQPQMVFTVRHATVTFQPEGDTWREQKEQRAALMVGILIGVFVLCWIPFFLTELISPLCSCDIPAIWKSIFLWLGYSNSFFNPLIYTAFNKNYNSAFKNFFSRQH
- PROTOCOL TEXT: inverse agonism at human 5-HT5A receptor – cell-based, luminescence, full-deck HTS, counter-screen for OPRM1-OPRD1 heterodimer inverse agonist project, primary screen (AID 504634);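 further: 0% = cells with DMSO and 100% = no-cell wells with DMSO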
- CONDITION LABEL: HTR5A cell line, at 9.3 µM, hits give high values
About 280 (0.082%) of roughly 340,000 compounds were called active. For the sample, actives were picked, then their nearest neighbours and some compounds at random.
// inhibition lookup, one value per entry

Solved cases (4 shown):
[
  {
    "COMPOUND": "CCOc1cc(S(=O)(=O)NCc2ccc3c(c2)OCO3)ccc1F",
    "STUDY TARGET": "5-hydroxytryptamine receptor 5A (Homo sapiens) (UniProt P47898)",
    "inhibition": "18.6% (inactive)"
  },
  {
    "COMPOUND": "CCCC(=O)N1CCN(c2nnc(-c3ccc(C)cc3)c3ccccc23)CC1",
    "STUDY TARGET": "5-hydroxytryptamine receptor 5A (Homo sapiens) (UniProt P47898)",
    "inhibition": "-8.96% (inactive)"
  },
  {
    "COMPOUND": "Cc1ccc2cc(CN(c3ccc(C)c(C)c3)S(C)(=O)=O)c(=O)[nH]c2c1",
    "STUDY TARGET": "5-hydroxytryptamine receptor 5A (Homo sapiens) (UniProt P47898)",
    "inhibition": "-3.96% (inactive)"
  },
  {
    "COMPOUND": "CCC1CCCCN1CCCNC(=O)c1cc2c(Cl)nc3ccccc3c2s1 (stereo not given)",
    "STUDY TARGET": "5-hydroxytryptamine receptor 5A (Homo sapiens) (UniProt P47898)",
    "inhibition": "5.42% (inactive)"
  }
]

Now consider the entry below.
**Query** Please supply the value of reported inhibition for the item CCc1ccc(OCC(=O)N(Cc2ccccc2)C2CCS(=O)(=O)C2)cc1 (stereo not given)
**Result** 9.5% (inactive)
